PROTOCOL_DESCRIPTION: MTT cytotoxicity assay, Hela cells
Type: cell-based
ASSAY_CONTEXT: human, Hela cells (human cervical cancer cell line), 50 µM
MEASUREMENT_TYPE: viability at 72 h, 50 µM

// known answers, use as guide
COMPOUND: CCOC(=O)C1=C(c2ccc(C)cc2)N=S(=O)(N2CCCCCC2)c2ccc(C)cc21 (stereo not drawn)
viability at 72 h, 50 µM: > 60%

COMPOUND: CC(C)(C)c1ccc2c(c1)C=C(c1ccccc1)N=S2(=O)N1CCCCCC1 (stereo not drawn)
viability at 72 h, 50 µM: > 60%

COMPOUND: CCOC(=O)C1=C(c2ccc(C)cc2)N=S(=O)(N2CCCCCC2)c2ccccc21 (stereo not drawn)
viability at 72 h, 50 µM: > 60%

COMPOUND: CCOC(=O)C1=C(C)N=S2(=NC(c3ccccc3)=CC(c3ccc(Cl)cc3)=C2)c2ccccc21 (stereo not drawn)
viability at 72 h, 50 µM: > 60%

COMPOUND: CCOC(=O)C1=C(C)N=S2(=NC(c3ccccc3)=CC(c3ccccc3)=C2)c2ccccc21 (stereo not drawn)
viability at 72 h, 50 µM: > 60%

Note to self: viability at 72 h, 50 µM recorded for CCOC(=O)C1=C(C)N=S(=O)(N2CCCCCC2)c2ccc([N+](=O)[O-])cc21 (stereo not drawn) was > 60%

====

System: P. falciparum 3D7 strain
PROTOCOL_DESCRIPTION: Malstat assay, asexual blood stages, CQ-sensitive strain 3D7
Format: cell-based
ASSAY_CONTEXT: Plasmodium falciparum, 3D7; ring stage parasites, 72 h, Malstat (plasmodial LDH); read-out: IC50 (µM) CQ-Sensitive Strain 3D7
# log10 IC50 per entry
Hey, these are logged values: log10 of IC50, µM being the unit before logging.

MOLECULE: CCOC(=O)C1=C(C)N=S2(=NC(c3ccccc3)=CC(c3ccc(Cl)cc3)=C2)c2ccccc21 (stereo not drawn)
log10 IC50: 0.49
//
MOLECULE: Cc1ccc2c(c1)C=C(c1ccccc1)N=S2(=O)N1CCCCCC1 (stereo not drawn)
log10 IC50: 1.33
//
MOLECULE: O=[S@@]1(c2ccccc2)=Nc2ccccc2-c2ncc3ccccc3c21
log10 IC50: 1.40
//
MOLECULE: CC(C)(C)c1ccc2c(c1)C=C(c1ccccc1)N=S2(=O)N1CCCCCC1 (stereo not drawn)
log10 IC50: 0.52

Note to self: log10 IC50 recorded for CCOC(=O)C1=C(c2cccs2)N=S(=O)(N2CCCCCC2)c2c1cc1ccccc1c2Cl (stereo not drawn) was 0.96

Note to self: log10 IC50 recorded for O=S1(N2CCCCCC2)=NC(c2ccccc2)=Cc2cccc(Cl)c21 (stereo not drawn) was 1.31

Note to self: log10 IC50 recorded for CCOC(=O)C1=C(c2cccs2)N=S(=O)(N2CCCCCC2)c2c(C)cccc21 (stereo not drawn) was 1.55

Note to self: log10 IC50 recorded for `CC(C)C[C@@H](CN=[S@](C)(=O)c1ccccc1)NC(=S)Nc1cc(C(F)(F)F)cc(C(F)(F)F)c1` was 1.15

Note to self: log10 IC50 recorded for O=S1(N2CCCCCC2)=NC(c2ccccc2)=Cc2ccccc21 (stereo not drawn) was 1.67

====

Tested on: P. falciparum 3D7 strain
PROTOCOL_DESCRIPTION: Malstat assay, asexual blood stages, CQ-sensitive strain 3D7
Assay type: cell-based
ASSAY_CONTEXT: Plasmodium falciparum, 3D7; ring stage parasites, 72 h, Malstat (plasmodial LDH); read-out: IC50 (µM) CQ-Sensitive Strain 3D7
MEASUREMENT_TYPE: IC50
Enter the number, and then the unit.

COMPOUND: CN1CCC[C@H](NC(=S)Nc2cc(C(F)(F)F)cc(C(F)(F)F)c2)C1
TESTED_SYSTEM: P. falciparum 3D7 strain
IC50: 8 µM
--
COMPOUND: CCOC(=O)C1=C(c2ccc(C)cc2)N=S(=O)(N2CCCCCC2)c2ccccc21 (centres unmarked)
TESTED_SYSTEM: P. falciparum 3D7 strain
IC50: 3.1 µM
--
COMPOUND: CCOC(=O)C1=C(C)N=S2(=NC(c3ccccc3)=CC(c3ccccc3)=C2)c2ccccc21 (centres unmarked)
TESTED_SYSTEM: P. falciparum 3D7 strain
IC50: 3.8 µM
--
COMPOUND: O=S1(N2CCCCCC2)=NC(c2ccc(Br)cc2)=Cc2ccccc21 (centres unmarked)
TESTED_SYSTEM: P. falciparum 3D7 strain
IC50: 10.6 µM

Pending compound:
// returns IC50 for CCOC(=O)C1=C(c2ccc(C)cc2)N=S(=O)(N2CCCCCC2)c2ccc(C)cc21 (centres unmarked) with P. falciparum 3D7 strain; value = 2.6 µM

====

System: P. falciparum 3D7 strain
PROTOCOL_DESCRIPTION: Malstat assay, asexual blood stages, CQ-sensitive strain 3D7
Format: cell-based
ASSAY_CONTEXT: Plasmodium falciparum, 3D7; ring stage parasites, 72 h, Malstat (plasmodial LDH); read-out: IC50 (µM) CQ-Sensitive Strain 3D7
# IC50 per entry
Record the value in µM, omitting the unit from your answer.

// known answers, use as guide
COMPOUND: Cc1cccc2c1S(=O)(N1CCCCCC1)=NC(c1ccc(Br)cc1)=C2 (centres unmarked)
NUMERIC_RESULT: 12.5
//
COMPOUND: CCOC(=O)C1=C(c2ccccc2)N=S(=O)(N2CCCCCC2)c2ccccc21 (centres unmarked)
NUMERIC_RESULT: 26.5
//
COMPOUND: CCOC(=O)C1=C(C)N=S(=O)(N2CCCCCC2)c2ccc(C)cc21 (centres unmarked)
NUMERIC_RESULT: 12
//
COMPOUND: CCOC(=O)C1=C(c2cccs2)N=S(=O)(N2CCCCCC2)c2ccccc21 (centres unmarked)
NUMERIC_RESULT: 31.5
//
COMPOUND: CCOC(=O)C1=C(C)N=S(=O)(N2CCCCCC2)c2ccc([N+](=O)[O-])cc21 (centres unmarked)
NUMERIC_RESULT: 5.2

Note to self: IC50 recorded for `CC(C)[C@@H](CN=[S@@](C)(=O)c1ccccc1)NC(=S)Nc1cc(C(F)(F)F)cc(C(F)(F)F)c1` was 15.9

Note to self: IC50 recorded for O=S1(c2ccc(Br)cc2)=NC(c2ccccc2)=CC(c2ccc(Cl)cc2)=N1 (centres unmarked) was 22.1

Note to self: IC50 recorded for O=[N+]([O-])c1ccc2c(c1)C=C(c1ccccc1)N=S2(=O)N1CCCCCC1 (centres unmarked) was 10.3
